Details: octanol/water
Mark Satisfied only for logP values smaller than 2; exact matches and larger values are Not satisfied.

Is 2 strictly greater than the molecule's reported logP? molecule: CCCc1nsc(N)n1 Satisfied

Is 2 strictly greater than the molecule's reported logP? molecule: Cc1nsc(N)n1 Satisfied

Is 2 strictly greater than the molecule's reported logP? molecule: Nc1nc(-c2ccccn2)ns1 Satisfied

Is 2 strictly greater than the molecule's reported logP? molecule: Nc1nc(-c2ccncc2)ns1 Satisfied

Is 2 strictly greater than the molecule's reported logP? molecule: Nc1nc(-c2cnccn2)ns1 Satisfied

Is 2 strictly greater than the molecule's reported logP? molecule: Nc1nc(-c2cccnc2)ns1 Satisfied

Is 2 strictly greater than the molecule's reported logP? molecule: CC(C)(C)c1cc(-c2noc(N)n2)cc(C(C)(C)C)c1O Not satisfied

Is 2 strictly greater than the molecule's reported logP? molecule: Nc1nc(-c2ccc(Cl)cc2)ns1 Not satisfied

Is 2 strictly greater than the molecule's reported logP? molecule: CC(C)(C)c1ccc(-c2nsc(N)n2)cc1 Satisfied

Is 2 strictly greater than the molecule's reported logP? molecule: CC(C)(C)c1nsc(N)n1 Satisfied

Is 2 strictly greater than the molecule's reported logP? molecule: Nc1nc(-c2ncccn2)ns1 Satisfied

Is 2 strictly greater than the molecule's reported logP? molecule: Nc1nc(-c2cccs2)ns1 Satisfied

Is 2 strictly greater than the molecule's reported logP? molecule: Nc1ncns1 Satisfied
